property: melting point

In [3]: df
Out[3]:
                                   molecule  value_measured
0  NC1=C(O)C(=O)C(c2cc(F)cc(F)c2)O1 (centres unmarked)   190 to 191 °C
1  NC1=C(OS(=O)(=O)c2ccccc2)C(=O)C(c2ccc(Cl)cc2)O1 (centres unmarked)   190 to 195 °C
2  NC1=C(O)C(=O)C(c2ccc(F)c(F)c2)O1 (centres unmarked)   190 to 194 °C
3  NC1=C(O)C(=O)C(c2c(F)cccc2F)O1 (centres unmarked)   159 to 160 °C
4  NC1=C(O)C(=O)C(c2cc(F)ccc2F)O1 (centres unmarked)          196 °C
5  NC1=C(O)C(=O)C(c2cccc(F)c2)O1 (centres unmarked)          168 °C
6  NC1=C(O)C(=O)C(c2cccc(F)c2F)O1 (centres unmarked)          193 °C
7  NC1=C(O)C(=O)C(c2ccccc2F)O1 (centres unmarked)   160 to 163 °C

Ask | Could you tell me which melting point is on file for CC(=O)OC1=C(N)OC(c2ccc(Cl)cc2)C1=O (centres unmarked) ?
Reply | 221 to 222 °C

Ask | And then NC1=C(O)C(=O)C(c2ccc(Cl)cc2)O1 (centres unmarked) , what is it?
Reply | 221 to 222 °C

Ask | And then NC1=C(O)C(=O)C(c2ccc(F)cc2F)O1 (centres unmarked) , what is it?
Reply | 182 to 183 °C
